Entries and their log10 TGI
- System: IGROV1 ovarian
- ASSAY OVERVIEW: NCI tumour cell line growth inhibition, 48 h
A difference of one corresponds to tenfold TGI; all values are log10 with TGI in µM.

Before answering, review these 6 worked examples.
COC(=O)C(CCSC)NC(=O)CSc1nnc(COc2ccc(Cl)cc2)n1-c1ccccc1 (stereo not drawn) = 1.49
FC(F)(F)c1ccc2c(Nc3cccc(C4CC(c5ccccc5)=NN4c4ccc(Cl)cc4)c3)ccnc2c1 (stereo not drawn) = 1.04
Cc1cccc(NC(Nc2cccc(C)c2)=C(C(Cl)=C(Cl)Cl)[N+](=O)[O-])c1 = 1.31
C=C1C(=O)O[C@H]2[C@H]1CC/C(COC(=O)c1cc3cc(OC)ccc3[nH]1)=C\CC[C@@]1(C)O[C@@H]21 = 0.50
NC(=S)N=Nc1c(O)cc(Nc2ccc(Cl)cc2Cl)c2ccccc12 = 1.94
CC(=O)n1c(-c2ccc(Cl)cc2)nc2c(c1=O)C(c1ccc(Cl)cc1)c1sc3c(Cl)cccc3c1O2 (stereo not drawn) = 0.49

Now turn to the next compound.
I am curious: what log10 TGI value has been reported for CCN(CCO)CCNc1ccc(C)c2sc3cc(Cl)ccc3c(=O)c12 ?
0.53

* * *

- Tested on: MOLT-4 leukemia
- ASSAY OVERVIEW: NCI tumour cell line growth inhibition, 48 h
MEASURED QUANTITY: GI50

Clc1ccc(OCc2nnc3n2N=C(c2ccc(Cl)cc2Cl)CS3)c(Cl)c1 = 22.8 µM
N#Cc1c(-c2ccccc2)nc2c(c(-c3ccccc3)nn2-c2ccccc2)c1-c1ccc(O)cc1 = 2.48 µM
C=C1CC(COc2cc(Cl)nc(N)n2)C1 = 40.2 µM
C=C1C(=O)O[C@H]2[C@H]1CC/C(COC(=O)c1cc3cc(OC)ccc3[nH]1)=C\CC[C@@]1(C)O[C@@H]21 = 1.32 µM

As a next step, examine the compound that follows.
Form field: reported GI50 of CCCS(=O)(=O)c1nc(NC2CC2)cc(-c2ccc3c(ccn3C3CC(C)(C)NC(C)(C)C3)c2)n1
2.02 µM

* * *

- Tested on: SK-MEL-5 melanoma
- ASSAY OVERVIEW: NCI tumour cell line growth inhibition, 48 h
MEASURED QUANTITY: log10 of TGI (log10 of the value in µM)
Could you please treat all values as log10 of TGI in µM?

Past entries and their recorded results:
C=C1C(=O)O[C@H]2[C@H]1CC/C(COC(=O)c1cc3cc(OC)ccc3[nH]1)=C\CC[C@@]1(C)O[C@@H]21 = 0.50
NCCN1CCN(c2nccc(-c3ccc4ccccc4c3)n2)CC1 = 0.48
N#CC(C#N)=Cc1cccc(Oc2ccccc2)c1 = 1.56
CN1c2ccccc2C(=O)NC12CCN(CC1COc3ccccc3O1)CC2 (configuration not stated) = 1.62

Which log10 of TGI value is on record for COc1ccc2c(c1)C=CC(C#N)N2C(=O)c1ccccc1 (configuration not stated) ?
0.67

* * *

Below are compounds with their GI50 as measured on MDA-MB-435.

For orientation, consider the following solved cases.
COc1cc(/C=C2\CC3C4CC=C5CC(N6CCCC6)CC[C@]5(C)C4CC[C@]3(C)C2OC(C)=O)ccc1OCCN1CCCC1 (stereo partly drawn) = 19.6 µM
CS(=O)(=O)Nc1ccc(-c2ccc3c(NC(=O)C4CC4)n[nH]c3c2)cc1 = > 25 µM
CCCS(=O)(=O)c1nc(NC2CC2)cc(-c2ccc3c(ccn3C3CC(C)(C)NC(C)(C)C3)c2)n1 = 1.47 µM
Oc1ccc(Cc2ccccc2)c2cccnc12 = 1.83 µM
Cc1c(C(=O)NN)nnn1-c1ccnc2c(C(F)(F)F)cccc12 = > 100 µM

Fill in the recorded GI50 for this compound, with MDA-MB-435 as test system: NC(N)=N/N=C/c1c(-c2ccccn2)nc2sc(Cl)cn12
7.56 µM

// fetch MDA-MB-435 GI50 for COCC(=O)OC1CCn2c1nc1c2C(=O)C(C)=C(NC(C)=O)C1=O (stereo not drawn)
2.17 µM

I'm curious: which GI50 was measured for CNc1nc(NC2CCCC2)nc(Sc2ccc(OC)cc2)n1 tested on MDA-MB-435?
> 10 µM
